# TESTED_TARGET: CYP2C9 (Homo sapiens (Human), UniProt P11712)
# Sequence (P11712 whole entry): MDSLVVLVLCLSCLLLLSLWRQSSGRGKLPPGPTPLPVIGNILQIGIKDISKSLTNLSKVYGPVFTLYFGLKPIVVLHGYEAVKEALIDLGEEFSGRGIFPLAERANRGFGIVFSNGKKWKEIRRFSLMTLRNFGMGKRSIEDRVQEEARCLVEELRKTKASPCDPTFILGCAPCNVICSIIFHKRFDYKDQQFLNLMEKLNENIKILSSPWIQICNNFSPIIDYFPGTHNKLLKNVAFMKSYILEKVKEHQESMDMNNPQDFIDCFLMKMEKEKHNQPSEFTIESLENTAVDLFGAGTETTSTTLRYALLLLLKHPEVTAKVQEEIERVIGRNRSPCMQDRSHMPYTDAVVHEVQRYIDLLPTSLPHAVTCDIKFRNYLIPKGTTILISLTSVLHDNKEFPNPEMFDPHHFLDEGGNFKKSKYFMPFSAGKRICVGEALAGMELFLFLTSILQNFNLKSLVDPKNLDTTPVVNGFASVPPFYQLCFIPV
# PROCEDURE_TEXT: CYP450 time-dependent inhibition, CYP2C9
# Format: in vitro ADME
# RUN_PARAMETERS: human, pooled human liver microsomes, pH 7.4; CYP2C9, 30 min preincubation, 15 μM; read-out: 15 μM % Inh

{"SMILES_REPR": "C#Cc1cc(Nc2nccc(Oc3ccc(NC(=O)Nc4cc(C(C)(C)C)nn4-c4ccc(C)cc4)c4ccccc34)n2)cc(C(=O)NCCOCCOCCOC)c1", "TESTED_TARGET": "CYP2C9 (Homo sapiens (Human), UniProt P11712)", "inhibition at 30 min, 15 µM [%]": 37}

----------
# System: primary macrophages
# PROCEDURE_TEXT: (e) LPS-induced cytokine release in primary macrophages
# Type: cell-based
# RUN_PARAMETERS: Homo sapiens, Primary macrophage, assay (e), read-out: IC50 for inhibition of release of IL-6
pIC50: −log10 of the molar value.
MEASURED_METRIC: pIC50

{"SMILES_REPR": "C#Cc1cc(Nc2nccc(Oc3ccc(NC(=O)Nc4cc(C(C)(C)C)nn4-c4ccc(C)cc4)c4ccccc34)n2)cc(C(=O)NCCOCCOCCOC)c1", "MEASURED_METRIC": "pIC50", "EXPERIMENTAL_VALUE": 8.55}

----------
# PROCEDURE_TEXT: Pharmacokinetics and colon distribution in mice
# Format: in vivo, male C57BL/6 mice
# RUN_PARAMETERS: male, C57BL/6, po; Mouse, 5 mg/kg p.o., Total colon
# Experimental: Blood samples (approximately 60 μL) were collected from retro orbital plexus such that the samples were obtained at 1, 2, 4, 6, 8, 12 and 24 hr. […] All samples were processed for analysis by protein precipitation using acetonitrile and analyzed with developed LC-MS/MS method (LLOQ: 2.02 ng/mL in plasma and 1.01 ng/mL in colon tissue). Pharmacokinetic parameters were calculated using the non-compartmental analysis tool of Phoenix WinNonlin® software (version 6.3).

{"SMILES_REPR": "C#Cc1cc(Nc2nccc(Oc3ccc(NC(=O)Nc4cc(C(C)(C)C)nn4-c4ccc(C)cc4)c4ccccc34)n2)cc(C(=O)NCCOCCOCCOC)c1", "UNIT_SPEC": "µg/mL", "Cmax": 13.7}

----------
Quick record of pIC50 values for UniProt P12931.
Sequence (P12931 whole entry, looked up): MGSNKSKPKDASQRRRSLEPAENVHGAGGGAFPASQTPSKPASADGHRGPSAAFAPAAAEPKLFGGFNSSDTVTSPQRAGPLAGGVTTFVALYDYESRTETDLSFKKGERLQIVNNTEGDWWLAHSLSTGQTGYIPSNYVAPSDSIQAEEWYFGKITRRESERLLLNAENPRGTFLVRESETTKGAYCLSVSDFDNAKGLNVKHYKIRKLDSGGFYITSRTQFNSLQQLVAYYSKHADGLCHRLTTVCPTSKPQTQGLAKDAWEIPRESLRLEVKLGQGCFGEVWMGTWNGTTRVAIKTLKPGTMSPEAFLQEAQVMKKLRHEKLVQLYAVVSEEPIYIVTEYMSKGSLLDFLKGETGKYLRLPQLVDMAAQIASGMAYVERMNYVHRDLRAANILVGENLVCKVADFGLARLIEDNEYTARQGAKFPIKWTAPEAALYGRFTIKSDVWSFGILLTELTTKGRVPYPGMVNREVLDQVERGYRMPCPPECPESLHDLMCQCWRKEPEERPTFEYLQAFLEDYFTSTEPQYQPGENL
pIC50: −log10 of the molar value.

{"SMILES_REPR": "COCCOCCOCCNC(=O)c1cc(Nc2cc(Oc3ccc(NC(=O)Nc4cc(C(C)(C)C)nn4-c4ccc(N(C)C)cc4)c4ccccc34)ccn2)cc(OC)c1", "pIC50": 7.60}
{"SMILES_REPR": "C#Cc1cc(Nc2nccc(Oc3ccc(NC(=O)Nc4cc(C(C)(C)C)nn4-c4ccc(OC)cc4)c4ccccc34)n2)cc(C(=O)NCCOCCOC)c1", "pIC50": 7.89}
{"SMILES_REPR": "C#Cc1cc(Nc2nccc(Oc3ccc(NC(=O)Nc4cc(C(C)(C)C)nn4-c4ccc(C)cc4)c4ccccc34)n2)cc(C(=O)NCCOCCOCCOCCOC)c1", "pIC50": 7.74}
{"SMILES_REPR": "C#Cc1cc(Nc2nccc(Oc3ccc(NC(=O)Nc4cc(C(C)(C)C)nn4-c4ccc(C)cc4)c4ccccc34)n2)cc(C(=O)NCCOCCOCCOC)c1", "pIC50": 7.96}
{"SMILES_REPR": "C#Cc1cc(Nc2nccc(Oc3ccc(NC(=O)Nc4cc(C(C)C)nn4-c4ccc(C)cc4)c4ccccc34)n2)cc(C(=O)NCCOCCOCCOC)c1", "pIC50": 7.52}

----------
# PROCEDURE_TEXT: Pharmacokinetics and colon distribution in rats
# Assay type: in vivo, male Wistar rats
# RUN_PARAMETERS: male, Wistar, colon, po; rat, 5 mg/kg p.o., 4 hr; read-out: Mean concentration, Colon
MEASURED_METRIC: concentration at 4 h (ng/g)

{"SMILES_REPR": "C#Cc1cc(Nc2nccc(Oc3ccc(NC(=O)Nc4cc(C(C)(C)C)nn4-c4ccc(C)cc4)c4ccccc34)n2)cc(C(=O)NCCOCCOCCOC)c1", "MEASURED_METRIC": "concentration at 4 h", "EXPERIMENTAL_VALUE": 339}

----------
# PROCEDURE_TEXT: Pharmacokinetics and colon distribution in mice
# Format: in vivo, male C57BL/6 mice
# RUN_PARAMETERS: male, C57BL/6, colon, po; mouse, 5 mg/kg p.o., 1 hr; read-out: Mean concentration, Colon

{"SMILES_REPR": "C#Cc1cc(Nc2nccc(Oc3ccc(NC(=O)Nc4cc(C(C)(C)C)nn4-c4ccc(C)cc4)c4ccccc34)n2)cc(C(=O)NCCOCCOCCOC)c1", "concentration at 1 h, ng/g": 884}

----------
# TESTED_TARGET: hERG (Homo sapiens (Human))
# Sequence (Q12809 whole entry): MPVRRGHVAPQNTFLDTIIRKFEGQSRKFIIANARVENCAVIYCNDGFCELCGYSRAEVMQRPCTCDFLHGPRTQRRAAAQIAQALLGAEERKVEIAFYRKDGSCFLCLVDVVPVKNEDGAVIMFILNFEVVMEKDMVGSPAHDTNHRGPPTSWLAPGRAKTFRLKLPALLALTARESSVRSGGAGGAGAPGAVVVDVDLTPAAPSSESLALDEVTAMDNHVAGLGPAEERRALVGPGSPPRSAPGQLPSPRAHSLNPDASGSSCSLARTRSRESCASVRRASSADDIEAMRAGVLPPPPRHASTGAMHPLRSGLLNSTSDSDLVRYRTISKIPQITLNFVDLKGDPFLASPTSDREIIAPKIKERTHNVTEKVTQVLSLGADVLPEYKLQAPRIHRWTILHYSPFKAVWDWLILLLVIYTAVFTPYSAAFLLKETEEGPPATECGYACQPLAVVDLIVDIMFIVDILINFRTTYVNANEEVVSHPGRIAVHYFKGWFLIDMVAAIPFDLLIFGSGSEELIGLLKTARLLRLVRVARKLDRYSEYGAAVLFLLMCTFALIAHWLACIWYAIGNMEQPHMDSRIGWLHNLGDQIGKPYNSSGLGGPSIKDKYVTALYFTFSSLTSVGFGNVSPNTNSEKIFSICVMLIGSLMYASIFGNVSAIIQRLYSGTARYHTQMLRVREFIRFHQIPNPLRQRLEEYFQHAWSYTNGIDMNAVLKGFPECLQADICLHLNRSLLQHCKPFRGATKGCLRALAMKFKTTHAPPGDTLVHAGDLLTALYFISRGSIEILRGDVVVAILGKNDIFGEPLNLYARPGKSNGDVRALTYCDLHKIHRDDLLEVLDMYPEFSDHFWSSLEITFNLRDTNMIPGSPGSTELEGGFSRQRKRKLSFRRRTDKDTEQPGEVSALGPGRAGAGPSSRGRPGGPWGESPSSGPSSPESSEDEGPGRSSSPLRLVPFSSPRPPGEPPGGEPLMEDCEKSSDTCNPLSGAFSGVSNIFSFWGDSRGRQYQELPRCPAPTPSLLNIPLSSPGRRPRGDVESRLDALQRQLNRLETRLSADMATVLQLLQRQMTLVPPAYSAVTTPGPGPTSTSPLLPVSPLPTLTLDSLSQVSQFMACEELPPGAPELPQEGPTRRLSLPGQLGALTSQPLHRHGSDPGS
# PROCEDURE_TEXT: hERG inhibition, IonWorks patch clamp

{"SMILES_REPR": "C#Cc1cc(Nc2nccc(Oc3ccc(NC(=O)Nc4cc(C(C)(C)C)nn4-c4ccc(C)cc4)c4ccccc34)n2)cc(C(=O)NCCOCCOCCOC)c1", "IC50": "> 3 µM"}

----------
# System: PBMCs
# PROCEDURE_TEXT: (b) LPS-induced TNFα/IL-8 release in PBMC cells
# Format: cell-based
# RUN_PARAMETERS: Homo sapiens, read-out: IC50 for Inhibition of Cytokine Release, IL-8
pIC50: −log10 of the molar value.
Quick list: pIC50 per entry.

{"SMILES_REPR": "C#Cc1cc(Nc2nccc(Oc3ccc(NC(=O)Nc4cc(C(C)(C)C)nn4-c4cccc(CP(C)(C)=O)c4)c4ccccc34)n2)cc(C(=O)NCCOCCOCCOC)c1", "TESTED_TARGET": "PBMCs", "pIC50": 8.82}
{"SMILES_REPR": "C#Cc1cc(Nc2cc(Oc3ccc(NC(=O)Nc4cc(C(C)(C)C)nn4-c4ccc(N(C)C)cc4)c4ccccc34)ccn2)cc(C(=O)NCCOCCOCCOC)c1", "TESTED_TARGET": "PBMCs", "pIC50": 8.37}
{"SMILES_REPR": "C#Cc1cc(Nc2nccc(Oc3ccc(NC(=O)Nc4cc(C(C)(C)C)nn4-c4ccc(C)cc4)c4c3CCCC4)n2)cc(C(=O)NCCOCCOCCOC)c1", "TESTED_TARGET": "PBMCs", "pIC50": 7.93}
{"SMILES_REPR": "[2H]c1c([2H])c(C([2H])([2H])[2H])c([2H])c([2H])c1-n1nc(C(C)(C)C)cc1NC(=O)Nc1ccc(Oc2ccnc(Nc3cc(C#C)cc(C(=O)NCCOCCOCCOC)c3)n2)c2ccccc12", "TESTED_TARGET": "PBMCs", "pIC50": 8.64}
{"SMILES_REPR": "C#Cc1cc(Nc2nccc(Oc3ccc(NC(=O)Nc4cc(C(C)(C)C)nn4-c4ccc(OC)cc4)c4ccccc34)n2)cc(C(=O)NCCOCCOC)c1", "TESTED_TARGET": "PBMCs", "pIC50": 8.92}
{"SMILES_REPR": "C#Cc1cc(Nc2nccc(Oc3ccc(NC(=O)Nc4cc(C(C)(C)C)nn4-c4ccc(C)cc4)c4ccccc34)n2)cc(C(=O)NCCOCCOC)c1", "TESTED_TARGET": "PBMCs", "pIC50": 8.80}

----------
# TESTED_TARGET: Syk (Homo sapiens (Human))
Lab note: compare IC50 with 60 nM, writing MET if less and NOT MET if equal or more.

{"SMILES_REPR": "C#Cc1cc(Nc2nccc(Oc3ccc(NC(=O)Nc4cc(C(C)(C)C)nn4-c4ccc(OC)cc4OC)c4ccccc34)n2)cc(C(=O)NCCOCCOCCOC)c1", "QUALITATIVE_LABEL": "NOT MET"}
{"SMILES_REPR": "COCCOCCOCCNC(=O)c1cc(Nc2cc(Oc3ccc(NC(=O)Nc4cc(C(C)(C)C)nn4-c4cccc(CP(C)(C)=O)c4)c4ccccc34)ccn2)cc(OC)c1", "QUALITATIVE_LABEL": "MET"}
{"SMILES_REPR": "C#Cc1cc(Nc2nccc(Oc3ccc(NC(=O)Nc4cc(C(C)C)nn4-c4ccc(C)cc4)c4ccccc34)n2)cc(C(=O)NCCOCCOCCOC)c1", "QUALITATIVE_LABEL": "NOT MET"}
{"SMILES_REPR": "C#Cc1cc(Nc2nccc(Oc3ccc(NC(=O)Nc4cc(C(C)(C)C)nn4-c4ccc(C)cc4)c4ccccc34)n2)cc(C(=O)NCCOCCOCCOC)c1", "QUALITATIVE_LABEL": "MET"}
{"SMILES_REPR": "C#Cc1cc(Nc2nccc(Oc3ccc(NC(=O)Nc4cc(C(C)(C)C)nn4-c4cccc(CP(C)(C)=O)c4)c4ccccc34)n2)cc(C(=O)NCCOCCOCCOC)c1", "QUALITATIVE_LABEL": "MET"}
{"SMILES_REPR": "C#Cc1cc(Nc2nccc(Oc3ccc(NC(=O)Nc4cc(C(C)(C)C)nn4-c4ccc(N(C)C)cc4)c4ccccc34)n2)cc(C(=O)NCCOCCOCCOC)c1", "QUALITATIVE_LABEL": "MET"}
